Values were extracted from PubChem BioAssay.

# Test Summary: small molecules captured by biotinylated probe aFSTL3 – biochemical, small-molecule microarray, fluorescence 635/667, stem cell growth factor project, primary screen (AID 1064);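 further: measures binding of the biotinylated anti-FSTL3 antibody to printed compounds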
# Measurement Conditions: higher = more signal
Reported Metric: composite z-score
Please reply with the value in numeric form only.

Answered cases to consult:
1) COc1ccc(C#Cc2ccc3c(c2)[C@]2(C(=O)N3)[C@H](C(=O)O)[C@H]3C(=O)O[C@H](c4ccccc4)[C@H](c4ccccc4)N3[C@@H]2c2ccc(OCCO)cc2)cc1 = -0.397
2) CC(C)C[C@H]1NC(=O)[C@H](C)NC(=O)[C@@]23C(=O)N[C@@H](Cc4ccccc4)C2[C@H](C)[C@@]2(C)O[C@H]2C3/C=C/C/C=C\CNC1=O (some centres undefined) = -0.021
3) COc1ccc([Si](C)(C)[C@@H]2[C@@H](CC(=O)N3Cc4ccccc4C[C@H]3CO)O[C@]3(C(=O)N(Cc4cccc(N5CCCCC5=O)c4)c4ccccc43)[C@H]2C)cc1 = -0.429
4) CCOC(=O)C[C@H]1[C@H](OC(=O)c2ccc(C(=O)c3ccccc3)cc2)[C@@H](NC(=O)C2CCCCC2)c2cc(OCCCO)ccc2N1C(=O)Cc1ccc(OC)cc1 = 0.644
5) COC(=O)[C@@]1(Cc2ccccc2N=[N+]=[N-])N=C(c2ccc(OCCCO)cc2)O[C@H]1c1ccccc1 = 0.135
6) COc1ccc([Si](C)(C)[C@H]2[C@H](CC(=O)N3CCC[C@H]3CO)O[C@@]3(C(=O)N(Cc4ccc(N5C(=O)c6cccc7cccc5c67)cc4)c4ccccc43)[C@@H]2C)cc1 = -0.276
7) Cc1ccc(S[C@]2(C(=O)NCC(C)C)CC(=O)N(C3CCCCC3)[C@@H]2c2ccc(CO)cc2I)cc1 = -0.25
8) O=C1C[C@@](C(=O)NCc2ccccc2)(c2ccc([N+](=O)[O-])cc2)[C@@H](c2ccc(CO)cc2I)N1C1CCCCC1 = 1.95

Please report composite z-score for the following compound: COCCCNC(=O)[C@@]1(Cc2ccccc2N=[N+]=[N-])N=C(c2ccc(OCCCO)cc2)O[C@H]1c1ccccc1CN=[N+]=[N-] 0.377

Please report composite z-score for the following compound: CC(C)c1ccc(NN2C(C(O)c3ccccn3)C=CC3C(=O)N(c4ccccc4)C(=O)C32)cc1 (centres undefined) -0.311

Please report composite z-score for the following compound: COC(=O)[C@@]1(Cc2ccc(OC)cc2)[C@H]2c3cc(C(=O)N4CCCC4)n(CCc4ccc(O)c(OC)c4)c3C[C@H]2CN1C(=O)c1ccccc1 0.411

Please report composite z-score for the following compound: COC(=O)[C@@]1(Cc2ccc(F)cc2)[C@@H]2[C@@H](CC(=O)[C@H]2CC(=O)C(=O)N2CCCC2)CN1C(=O)c1ccccc1 0.664

Please report composite z-score for the following compound: CCCCC=C[C@@H](NC(=O)CCc1ccccc1)c1ccccc1 0.0413

Please report composite z-score for the following compound: [N-]=[N+]=Nc1ccccc1C[C@]1(C(=O)NCCN2CCOCC2)N=C(c2ccc(OCCCO)cc2)O[C@H]1c1ccccc1N=[N+]=[N-] -0.195

* * *

# Experimental Target: NADPH oxidase 2 (Homo sapiens) (UniProt P04839)
# Sequence (P04839 whole entry, looked up): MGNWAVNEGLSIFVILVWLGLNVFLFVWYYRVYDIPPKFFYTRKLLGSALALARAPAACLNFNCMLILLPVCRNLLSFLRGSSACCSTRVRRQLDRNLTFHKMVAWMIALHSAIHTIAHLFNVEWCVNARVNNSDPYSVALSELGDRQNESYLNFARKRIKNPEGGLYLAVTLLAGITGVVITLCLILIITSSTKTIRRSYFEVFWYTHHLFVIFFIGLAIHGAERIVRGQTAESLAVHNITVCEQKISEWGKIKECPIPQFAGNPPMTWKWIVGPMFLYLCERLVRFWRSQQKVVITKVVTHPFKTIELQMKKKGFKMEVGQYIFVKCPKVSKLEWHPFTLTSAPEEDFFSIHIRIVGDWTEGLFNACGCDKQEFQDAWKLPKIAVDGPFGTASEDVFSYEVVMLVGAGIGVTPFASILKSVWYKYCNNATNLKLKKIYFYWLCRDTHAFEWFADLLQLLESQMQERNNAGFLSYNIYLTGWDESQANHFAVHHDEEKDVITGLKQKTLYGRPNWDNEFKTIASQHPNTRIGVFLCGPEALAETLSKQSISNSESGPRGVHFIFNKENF
# Test Summary: compounds shifting NOX2 Amplex Red fluorescence – cell-based, HEK293-NOX2, PMA-stimulated, NOX inhibitor project, primary screen (AID 1159); further: test concentration not given here
# Measurement Conditions: 45 min, higher = more signal, called active from +8 up or from −8 down
Recorded measurements of z-score, one per entry
Please reply with the value in numeric form only.

Answered cases to consult:
1. CN(C)CCCNC(=O)[C@@]1(Cc2ccccc2I)c2ccccc2C(=O)N(Cc2ccccc2Cl)[C@H]1c1ccc(CO)cc1 = -10.2
2. O=C1N(CCS(=O)(=O)c2ccccc2)Cc2ccccc2C[C@@]12COC(c1ccc(OCCCO)cc1)=N2 = -5.26
3. COc1ccc(C#Cc2ccc3c(c2)[C@]2(C(=O)N3)[C@H](c3ccc(OCCO)cc3)N3[C@H](c4ccccc4)[C@H](c4ccccc4)OC(=O)[C@H]3[C@@H]2C(=O)N2CCN(c3ncccn3)CC2)cc1 = 1.15
4. CCCC[C@@H](O)C1=C(COc2ccccc2)Cn2c(=O)n(-c3ccccc3)c(=O)n2[C@H]1CO = -0.809
5. C=C(C(=O)CC[C@H](OC(=O)c1cccnc1)c1ccc(OCCO)cc1)C(C)C = -0.427

// output z-score; input O=C1NC(=O)C2C1C=CC(C(O)CCc1ccccc1)N2Nc1ccccn1 (stereo not given) ; system NADPH oxidase 2 (Homo sapiens) (UniProt P04839) -1.43

// output z-score; input COc1ccc([Si](C)(C)[C@H]2[C@H](CCn3cc(CCO)nn3)O[C@@]3(C(=O)N(Cc4cccc(N5C(=O)c6cccc7cccc5c67)c4)c4ccccc43)[C@@H]2C)cc1 ; system NADPH oxidase 2 (Homo sapiens) (UniProt P04839) 0.782

// output z-score; input O=C1OCC=C[C@H]2OC34C=CCN(CCN5CCOCC5)C(=O)[C@H]3N(CCCCCO)C(=O)[C@@H]4[C@@H]12 (stereo not given in full) ; system NADPH oxidase 2 (Homo sapiens) (UniProt P04839) 0.922

// output z-score; input COc1cc(C(O)C2C=CC3C(=O)NC(=O)C3N2Nc2ccc(Cl)cc2Cl)cc(OC)c1OC (stereo not given) ; system NADPH oxidase 2 (Homo sapiens) (UniProt P04839) -0.885

// output z-score; input Cc1cc(C)c(C(O)C2C=CC3C(=O)N(c4ccccc4)C(=O)C3N2Nc2ccccc2)c(C)c1 (stereo not given) ; system NADPH oxidase 2 (Homo sapiens) (UniProt P04839) -1.56

// output z-score; input Cc1ccc(S[C@]2(C(=O)NCC(C)C)CC(=O)N(C3CCCCC3)[C@@H]2c2ccc(CO)cc2I)cc1 ; system NADPH oxidase 2 (Homo sapiens) (UniProt P04839) 1.54

// output z-score; input NCCCCCCNC(=O)[C@H]1C[C@H]2C(=O)N3CCC[C@H]3C(=O)N2[C@H]1c1ccc(O)cc1 ; system NADPH oxidase 2 (Homo sapiens) (UniProt P04839) -0.019

// output z-score; input COCCOC(=O)N1C(=O)[C@@]2(c3cc(C#Cc4ccc(OC)cc4)ccc31)[C@H](c1ccc(OCCO)cc1)N1[C@H](c3ccccc3)[C@H](c3ccccc3)OC(=O)[C@H]1[C@@H]2C(N)=O ; system NADPH oxidase 2 (Homo sapiens) (UniProt P04839) 1.49

// output z-score; input CCCCC=C[C@@H](NC(=O)CCc1ccccc1)c1ccccc1 ; system NADPH oxidase 2 (Homo sapiens) (UniProt P04839) -0.753

// output z-score; input COCCCNC(=O)[C@@]1(Cc2ccccc2N=[N+]=[N-])N=C(c2ccc(OCCCO)cc2)O[C@H]1c1ccccc1CN=[N+]=[N-] ; system NADPH oxidase 2 (Homo sapiens) (UniProt P04839) -2.73
